# SYSTEM: GST tagged IRAK4 (Homo sapiens (Human), UniProt Q9NWZ3)
# Sequence (Q9NWZ3 whole entry): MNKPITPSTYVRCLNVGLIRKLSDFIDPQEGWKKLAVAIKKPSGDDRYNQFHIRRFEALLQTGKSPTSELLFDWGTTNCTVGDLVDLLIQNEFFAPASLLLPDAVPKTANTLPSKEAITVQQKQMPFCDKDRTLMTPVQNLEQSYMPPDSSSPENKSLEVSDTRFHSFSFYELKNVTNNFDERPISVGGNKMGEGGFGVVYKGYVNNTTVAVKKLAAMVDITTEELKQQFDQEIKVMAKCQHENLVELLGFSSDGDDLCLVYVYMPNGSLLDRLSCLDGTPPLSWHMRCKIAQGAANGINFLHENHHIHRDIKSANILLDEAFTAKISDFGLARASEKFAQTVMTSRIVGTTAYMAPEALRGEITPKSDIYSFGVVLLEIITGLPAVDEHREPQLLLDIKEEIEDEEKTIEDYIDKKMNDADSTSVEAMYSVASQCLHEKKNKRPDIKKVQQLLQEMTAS
READOUT: log10 IC50 (log10 of the value in nM)
Note the log scale: values are log10 of IC50 expressed in nM.

These recorded examples may help you get a feel for the data.
Cn1cc(NC(=O)c2cccc(-c3ccnc(NCC4CC4)c3)n2)c(C(=O)NCc2ncc[nH]2)n1 : 3.19
Cn1cc(NC(=O)c2cccc(-c3cccc(OC(F)(F)F)c3)n2)c(C(N)=O)n1 : 3.35
CN1CCN(C(=O)c2nn(C)cc2NC(=O)c2cccc(-c3ccnc(NCC4CC4)c3)n2)CC1 : 3.46
Cn1cc(NC(=O)c2cccc(-c3ccnc(NCC(F)(F)F)c3)n2)c(C(N)=O)n1 : 2.10
Cn1cc(NC(=O)c2cccc(-c3ccnc(NCC(F)F)c3)n2)c(C(N)=O)n1 : 2.29

Entry under review: "CN1CCC(c2cccc(C(=O)Nc3cn(C)nc3C(N)=O)n2)=CC1=O" . Reported log10 IC50?
1.91

What about this molecule? "Cn1cc(NC(=O)c2cccc(N3CCNCC3)n2)c(C(N)=O)n1"
3.54

What about this molecule? "COc1cccc(-c2cccc(C(=O)Nc3cn(C)nc3C(N)=O)n2)c1"
2.80

What about this molecule? "COc1ncccc1-c1cccc(C(=O)Nc2cn(C)nc2C(N)=O)n1"
3.33

What about this molecule? "CN(C)CCCCCNC(=O)c1nn(C)cc1NC(=O)c1cccc(-c2ccnc(NCC3CC3)c2)n1"
3.34

What about this molecule? "Cn1ncc(NC(=O)c2cccc(-c3ccnc(NCC4CC4)c3)n2)c1C(N)=O"
3.43

What about this molecule? "Cn1cc(NC(=O)c2cccc(-c3ccnc(NCC4CC4)c3)n2)c(C(=O)NCCn2cccn2)n1"
3.43

What about this molecule? CN1CCC(CNC(=O)c2nn(C)cc2NC(=O)c2cccc(-c3ccnc(NCC4CC4)c3)n2)C1 (stereo not shown)
2.86

What about this molecule? "Cn1cc(NC(=O)c2cccc(-c3ccnc(NCC4CC4)c3)n2)c(C(=O)NCCc2cnccn2)n1"
3.43

What about this molecule? "Cn1cc(NC(=O)c2cccc(-c3cccnc3)n2)c(C(N)=O)n1"
2.33

What about this molecule? "COCCNc1cc(-c2cccc(C(=O)Nc3cn(C)nc3C(N)=O)n2)ccn1"
2.27

What about this molecule? "Cn1cc(NC(=O)c2cccc(-c3ccnc(NCC4CC4)c3)n2)c(C(=O)NCc2ccncn2)n1"
3.64

What about this molecule? "CNC(=O)c1cccc(-c2cccc(C(=O)Nc3cn(C)nc3C(N)=O)n2)c1"
2.30

What about this molecule? Cn1cc(NC(=O)c2cccc(-c3ccnc(NCC4CC4)c3)n2)c(C(=O)NC2CCOC2)n1 (stereo not shown)
3.36

What about this molecule? "Cn1cc(NC(=O)c2cccc(-c3cncc(Cl)c3)n2)c(C(N)=O)n1"
1.96

----------
Entries with reported IC50 on GST tagged IRAK4 (Homo sapiens (Human))
Record the value in nM, omitting the unit from your answer.

These recorded examples may help you get a feel for the data.
Cn1cc(NC(=O)c2cccc(-c3ccnc(NC(=O)OC(C)(C)C)c3)n2)c(C(N)=O)n1 : 785
Cn1cc(NC(=O)c2cncc(-c3ccnc(NCC4CC4)c3)c2)c(C(N)=O)n1 : 1100
CN(C)[C@H]1CN(C(=O)c2nn(C)cc2NC(=O)c2cccc(-c3ccnc(NCC4CC4)c3)n2)C[C@@H]1O : 186
Cn1cc(NC(=O)c2cccc(-c3ccnc(NCC4CCOCC4)c3)n2)c(C(N)=O)n1 : 477

Let's switch to this molecule now.
Entry under review: "Cn1cc(NC(=O)c2cccc(-c3ccnc(N)c3)n2)c(C(N)=O)n1" . Reported IC50?
101

Recorded values, source patent US9586948B2.
